Assay: TOR pathway RTG branch CIT2 reporter changes – S. cerevisiae, GFP fusion, multiplex flow cytometry, primary screen (AID 1870);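 note: barcoded CIT2-GFP strain pooled with four other GFP strains with rapamycin as positive control; median GFP fluorescence per well over plate mean of DMSO wells so 100% = DMSO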
Conditions: S. cerevisiae CIT2-GFP expression, 3 h, at 10 µM, stronger effect = higher value
Test Readout: percent response of DMSO control (%)
Output spec: scalar in %, unitless text.

CC12CN3CC(C)(CN(C1)C3c1ccc(Cl)cc1Cl)C2=O (stereo not drawn) :: 112
C=CCNc1nc2c(c(=O)n(C)c(=O)n2C)n1CC(=C)C :: 101
C=C(C)Cn1c(NCCOC)nc2c1c(=O)[nH]c(=O)n2C :: 104
O=C(NC(=S)Nc1ccc2c(c1)OCCO2)c1ccccc1F :: 101
Cc1cc(C)c(NC(=O)NC(=O)C(Cl)(Cl)Cl)c(C)c1 :: 101

IN: For Cc1[nH]nc(-c2ccc(O)cc2O)c1Oc1ccccc1 , what is its reported percent response of DMSO control?
OUT: 114

IN: For NS(=O)(=O)c1cc(C2(O)NC(=O)c3ccccc32)ccc1Cl (stereo not drawn) , what is its reported percent response of DMSO control?
OUT: 115

IN: For COc1cccc(-n2cc(CNCc3c(C(=O)N(C)C)nc4ccc(Cl)cn34)cn2)c1 , what is its reported percent response of DMSO control?
OUT: 111

* * *

Attribute: inhibition
Target: Integrin beta-1 (Homo sapiens) + Integrin alpha-4 (Homo sapiens) (UniProt P13612+P05556)
Sequence (P05556 whole entry, looked up): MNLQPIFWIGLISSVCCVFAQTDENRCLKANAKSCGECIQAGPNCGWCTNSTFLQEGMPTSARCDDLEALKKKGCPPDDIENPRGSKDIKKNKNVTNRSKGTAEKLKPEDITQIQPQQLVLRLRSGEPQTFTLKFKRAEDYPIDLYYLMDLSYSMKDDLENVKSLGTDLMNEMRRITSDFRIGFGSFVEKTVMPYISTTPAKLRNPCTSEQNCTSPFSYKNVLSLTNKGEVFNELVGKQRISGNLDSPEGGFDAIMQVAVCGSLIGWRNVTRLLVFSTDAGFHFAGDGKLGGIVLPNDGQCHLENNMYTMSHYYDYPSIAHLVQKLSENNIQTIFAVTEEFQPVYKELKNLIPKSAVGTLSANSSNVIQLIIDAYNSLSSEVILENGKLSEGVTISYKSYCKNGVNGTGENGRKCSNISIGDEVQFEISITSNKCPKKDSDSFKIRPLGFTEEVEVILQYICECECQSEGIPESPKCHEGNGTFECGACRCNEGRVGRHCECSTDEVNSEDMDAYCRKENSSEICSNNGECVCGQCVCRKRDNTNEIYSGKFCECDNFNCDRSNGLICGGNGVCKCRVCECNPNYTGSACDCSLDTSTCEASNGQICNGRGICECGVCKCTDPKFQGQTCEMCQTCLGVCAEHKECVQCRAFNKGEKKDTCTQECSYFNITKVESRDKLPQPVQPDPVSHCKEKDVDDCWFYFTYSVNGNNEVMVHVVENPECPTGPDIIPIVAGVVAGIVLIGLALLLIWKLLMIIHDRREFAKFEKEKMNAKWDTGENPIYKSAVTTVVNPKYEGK
Sequence (P13612 whole entry, looked up): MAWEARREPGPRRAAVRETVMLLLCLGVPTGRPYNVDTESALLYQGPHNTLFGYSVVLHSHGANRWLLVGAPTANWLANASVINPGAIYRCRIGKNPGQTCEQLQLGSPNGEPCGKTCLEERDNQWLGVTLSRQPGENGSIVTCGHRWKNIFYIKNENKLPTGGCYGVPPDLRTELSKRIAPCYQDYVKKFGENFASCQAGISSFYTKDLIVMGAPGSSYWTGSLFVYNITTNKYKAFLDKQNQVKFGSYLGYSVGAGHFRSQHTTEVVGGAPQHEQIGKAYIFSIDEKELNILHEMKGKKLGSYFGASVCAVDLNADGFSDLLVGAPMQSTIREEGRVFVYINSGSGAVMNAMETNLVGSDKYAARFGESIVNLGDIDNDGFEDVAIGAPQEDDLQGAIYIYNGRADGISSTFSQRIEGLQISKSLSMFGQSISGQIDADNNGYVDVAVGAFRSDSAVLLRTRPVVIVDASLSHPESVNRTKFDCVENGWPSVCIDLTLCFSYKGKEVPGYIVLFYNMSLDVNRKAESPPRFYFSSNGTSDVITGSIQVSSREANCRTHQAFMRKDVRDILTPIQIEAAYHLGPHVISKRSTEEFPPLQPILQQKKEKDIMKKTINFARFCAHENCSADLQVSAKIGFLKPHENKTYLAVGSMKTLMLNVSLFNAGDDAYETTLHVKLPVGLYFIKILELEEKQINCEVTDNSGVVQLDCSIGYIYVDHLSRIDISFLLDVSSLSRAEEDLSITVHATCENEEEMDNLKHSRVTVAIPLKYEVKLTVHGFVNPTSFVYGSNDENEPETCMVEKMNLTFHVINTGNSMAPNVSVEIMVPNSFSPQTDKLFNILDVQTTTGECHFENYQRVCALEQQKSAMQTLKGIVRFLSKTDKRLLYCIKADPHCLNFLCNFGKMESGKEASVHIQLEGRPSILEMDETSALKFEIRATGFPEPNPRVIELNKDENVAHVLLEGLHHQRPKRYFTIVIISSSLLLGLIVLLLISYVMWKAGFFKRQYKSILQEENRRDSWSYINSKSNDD
Assay: alpha4beta1 integrin LIBS antibody binding reduction – U937 cells, HUTS-21 mAb, flow cytometry, validation set, VLA-4 allosteric modulator project, pilot screen (AID 2674);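 note: antibody binding induced by the VLA-4 ligand LDV present at three times its Kd; 0% = LDV ligand with antibody and no compound and 100% = antibody without LDV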
Conditions: HUTS-21 LIBS mAb binding, at 6.7 µM, stronger effect = higher value, binding induced by LDV ligand
Output spec: scalar in %, unitless text.

O=C(NC1CC1)C1CCN(C2CCN(C(=O)Cc3ccc(F)cc3)CC2)CC1 :: -3.24

IN: For CCOC(=O)C1NN=C(C(=O)c2ccccc2)C1c1ccc(Cl)cc1 (centres undefined) , what is its reported inhibition?
OUT: 9.63

* * *

Assay: rapamycin-like changes in RPL19A-GFP expression – cell-based, S. cerevisiae, multiplex flow cytometry, primary screen (AID 1862);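 note: lower values mimic rapamycin by blocking the RPL19A rise seen in DMSO cells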
Conditions: S. cerevisiae RPL19A-GFP strain, flow cytometry fluorescence, 3 h; at 10 µM; stronger effect = lower value
Results filed as inconclusive are left out.
Test Readout: percent of DMSO control GFP (%)
Output spec: scalar in %, unitless text.

COc1cccc(/C=C/C(=O)c2c(O)cc(C)oc2=O)c1O :: 104
CCC(C)NCCOc1ccc(C(C)(C)c2ccccc2)cc1 (stereo not given) :: 107
CN(C)CCOC(c1ccccc1)c1ccccc1 :: 94.4

IN: For O=C(CC1SC(=O)NC1=O)Nc1ccc(Cl)cc1 (stereo not given) , what is its reported percent of DMSO control GFP?
OUT: 101

IN: For O=C(N1CCCC1)C12CC3CC(C1)CC(C(=O)N1CCCC1)(C3)C2 , what is its reported percent of DMSO control GFP?
OUT: 99.5

IN: For Cc1cccc2c1CC(C)(C)N/C2=C\C(N)=O , what is its reported percent of DMSO control GFP?
OUT: 98.7

IN: For CC1=NS(=O)(=O)c2cc(Cl)ccc2N1 , what is its reported percent of DMSO control GFP?
OUT: 98.8

IN: For COc1ccc2[nH]c(=O)c3c(c2c1)OC(C)(C)C=C3 , what is its reported percent of DMSO control GFP?
OUT: 93.7

IN: For O=c1nc2n(c3c1oc1ccccc13)Cc1ccccc1-2 , what is its reported percent of DMSO control GFP?
OUT: 100

IN: For Cc1cc(NS(=O)(=O)c2ccc(N)cc2)no1 , what is its reported percent of DMSO control GFP?
OUT: 103

Origin of the recorded values: PubChem BioAssay
